Target: active mMMP-9(cat)_FLAG_Avi (UniProt P41245 108-450)
Sequence (P41245 other isoform, or with tags, fused parts or gaps): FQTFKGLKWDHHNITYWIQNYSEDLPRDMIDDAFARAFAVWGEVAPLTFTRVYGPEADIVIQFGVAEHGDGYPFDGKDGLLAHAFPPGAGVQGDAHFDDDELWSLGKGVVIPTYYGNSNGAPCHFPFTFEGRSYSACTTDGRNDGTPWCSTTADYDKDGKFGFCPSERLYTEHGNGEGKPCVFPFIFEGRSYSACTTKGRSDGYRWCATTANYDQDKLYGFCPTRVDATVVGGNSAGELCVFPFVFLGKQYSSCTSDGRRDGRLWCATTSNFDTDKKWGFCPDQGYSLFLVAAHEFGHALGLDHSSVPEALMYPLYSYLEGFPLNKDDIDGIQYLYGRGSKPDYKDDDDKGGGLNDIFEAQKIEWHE
Experiment: enzyme inhibition; substrate peptide
Measured IC50 accompanies every entry in the list below.
experimental-readout: IC50 (nM)

>>> value_measured("active MMP-9-binding peptide M91004 (designed binder) GSGMKETAAAKFERQHMDSPDLGTDDDDKAMADIGSANSDPQFGLFSKYRTPNCRQRKGPSCQMAFQPVCGSDMSTYANECTLCMKIREGGHNIKIIRNGPCGASAAA")
7.1
>>> value_measured("active MMP-9-binding peptide M91002 (designed binder) GSGMKETAAAKFERQHMDSPDLGTDDDDKAMADIGSANSDPQFGLFSKYRTPNCRTGRGPACQMGFQPVCGSDMSTYANECTLCMKIREGGHNIKIIRNGPCGASAAA")
5.1
>>> value_measured("active MMP-9-binding peptide M91011 (designed binder) GSGMKETAAAKFERQHMDSPDLGTDDDDKAMADIGSANSDPQFGLFSKYRTPNCMMYKYAQCSHKSQPVCGSDMSTYANECTLCMKIREGGHNIKIIRNGPCGASAAA")
21
>>> value_measured("active MMP-9-binding peptide M91014 (designed binder) GSGMKETAAAKFERQHMDSPDLGTDDDDKAMADIGSANSDPQFGLFSKYRTPNCVMYKYAQCSHKYKPVCGSDMSTYANECTLCMKIREGGHNIKIIRNGPCGASAAA")
9.2
